B1: LINE1-mini (parent)
chain: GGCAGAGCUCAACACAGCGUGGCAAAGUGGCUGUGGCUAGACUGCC

variants of: B1; experiment: self-cleavage, relative activity (ratio to wild type); higher = more cleavage; in vitro, sequencing; the parent is a self-cleaving ribozyme
ASSAY_READOUT: self-cleavage
# answer = number (no unit)

Use these answered entries as a reference point.
| SEQUENCE_VARIANT | self-cleavage |
| --- | --- |
| C23G G29U | 0.47 |
| G27U G35C | 0.09 |
| U34A G40A | 0.09 |
| A4C G21U | 0.21 |

Ask: Fill in: self-cleavage of G2U G40A is ___
Reply: 0.03

Values compiled from the RNAGym collection of RNA variant scans (doi:10.7554/elife.90254).
